System: P12-Ichikawa
measurement.protocol: cell viability relative to DMSO control; higher = less cytotoxic
experimental.conditions: HPLM + 10% dialyzed FBS; 48 h; 0.00702 µM
experimental.readout: cell viability

# compound, result
data = [
    ("O=C1N\\C=N/C2=C1C=N[NH]2", "83.5%"),
    ("NC\\1=N\\C(=O)N(\\C=C1F)[C@H]2C[C@H](O)[C@@H](CO)O2", "104%"),
    ("CCCCc1nc2cc(/C=C/C(=O)NO)ccc2n1CCN(CC)CC", "103%"),
    ("OCCN(CCO)c1nc(N2CCCCC2)c2nc(N(CCO)CCO)nc(N3CCCCC3)c2n1", "118%"),
    ("CC1=C(/C=C/C(C)=C/C=C/C(C)=C/C(=O)O)C(C)(C)CCC1", "121%"),
    ("CCOC(=O)[C@@H](N)CCC(=O)N[C@@H](CSCc1ccccc1)C(=O)N[C@@H](C(=O)OCC)c1ccccc1", "128%"),
    ("Cc1c(C(=O)c2cccc3ccccc23)c2cccc3c2n1[C@H](CN1CCOCC1)CO3", "93.5%"),
    ("COC(=O)[C@H](c1ccccc1Cl)N1CCc2sccc2C1", "100%"),
    ("CN(C(Cc1ccc(O[S+](=O)([O-])c2cccc3cnccc23)cc1)C(=O)N1CCN(c2ccccc2)CC1)[S+](=O)([O-])c1cccc2cnccc12 (centres undefined)", "106%"),
]

* * *

Test system: SEM cells
measurement.protocol: cell viability relative to DMSO control; higher = less cytotoxic
experimental.conditions: RPMI 5 mM glucose + 10% dialyzed FBS; 48 h; 0.569 µM
experimental.readout: cell viability (%)

# molecule, experimental.readout, result.number
records = [
    ("CCCCCCCCCCCC/1=C(O)/C(=O)/C=C(O)\\C1=O", "cell viability", 134),
    ("CCC(C1CCC(C)C(O1)C(C)C(O)C(C)C(=O)C(CC)C2OC\\3(O[C@]4(CC[C@@](C)(O4)C5CC[C@@](O)(CC)C(C)O5)C(O)\\C=C3)C(C)CC2C)C([O-])=O (stereo not given in full)", "cell viability", 89.1),
    ("O=C(NCc1ccccc1)c1csc(Nc2ccncn2)n1", "cell viability", 85.9),
    ("Nc1ccn([C@H]2CS[C@@H](CO)O2)c(=O)n1", "cell viability", 139),
    ("NC(CO)C(=O)NNCc1ccc(O)c(O)c1O (stereo not given)", "cell viability", 100),
]

* * *

Tested on: SEM cells
measurement.protocol: cell viability relative to DMSO control; higher = less cytotoxic
experimental.conditions: HPLM + 10% dialyzed FBS; 48 h; 0.000781 µM

# compound.structure.string, cell viability
records = [
    ("N#CC[C@H](C1CCCC1)n1cc(-c2ncnc3[nH]ccc23)cn1", "100%"),
    ("COc1cc(OC)c(C(=O)CCCN2CCCC2)c(OC)c1", "119%"),
    ("C=CC(=O)Nc1ccc2ncnc(Nc3ccc(OCc4cccc(F)c4)c(Cl)c3)c2c1", "75.8%"),
]

* * *

As shown below, each of these compounds has a reported cell viability value.
Test system: P12-Ichikawa
measurement.protocol: cell viability relative to DMSO control; higher = less cytotoxic
experimental.conditions: RPMI 5 mM glucose + 10% FBS; 48 h; 1.71 µM
experimental.readout: cell viability (%)

# compound, unit, result.number
data = [
    ("NC[C@H]1O[C@H](O[C@H]2[C@H](O)[C@@H](O[C@H]3O[C@H](CO)[C@@H](O)[C@H](N)[C@H]3O)[C@H](N)C[C@@H]2N)[C@H](N)C[C@@H]1O", "%", 85.9),
    ("O=C1N\\C=N/C2=C1C=N[NH]2", "%", 79.1),
    ("Nc1ccc([S+](=O)([O-])Nc2ncccn2)cc1", "%", 126),
    ("OC[C@H]1OC(OC2=CC3=C(C(=C2)O)C(=O)\\C(=C/O3)C4=CC=C(O)C=C4)[C@H](O)[C@@H](O)[C@@H]1O (some centres undefined)", "%", 78),
]
